Reported pIC50 on human PDE10A2 (Homo sapiens (Human), UniProt Q9Y233) for assorted molecules, compiled from publications.
The read-out pIC50 is expressed as -log10 of concentration in moles per litre.

Consider the reported pIC50 for these molecules:
{"columns": ["compoundStructure", "pIC50"],
 "data": [
  ["CN(CCO)C(=O)c1cnn(C)c1C(=O)Nc1ccn2cc(-c3ccccc3)nc2n1", 7.63],
  ["Cc1nc2ccc(C#Cc3nc(N4CCCC4)nn3C)nn2c1Cl", 8.60],
  ["O=C1N([C@H]2C[C@H](Nc3nc4ccccc4s3)C2)c2ncccc2C12CCC2", 9.94]
]}

Prompt: Lab note: need pIC50 with human PDE10A2 (Homo sapiens (Human), UniProt Q9Y233) for entry CNC(=O)c1nn(CCOC)cc1NC(=O)c1nc(C2CC2)ccc1Nc1cncnc1 , please look it up.
Completion: 7.04

Prompt: Lab note: need pIC50 with human PDE10A2 (Homo sapiens (Human), UniProt Q9Y233) for entry COc1cnc(N[C@H]2C[C@H](N3C(=O)C(C)(C)c4nccnc43)C2)cn1 , please look it up.
Completion: 8.56
